All values here come from paper PMC10321483.

Target: LdtMt2 (Mycobacterium tuberculosis, UniProt I6Y9J2)
Sequence (I6Y9J2 56-408): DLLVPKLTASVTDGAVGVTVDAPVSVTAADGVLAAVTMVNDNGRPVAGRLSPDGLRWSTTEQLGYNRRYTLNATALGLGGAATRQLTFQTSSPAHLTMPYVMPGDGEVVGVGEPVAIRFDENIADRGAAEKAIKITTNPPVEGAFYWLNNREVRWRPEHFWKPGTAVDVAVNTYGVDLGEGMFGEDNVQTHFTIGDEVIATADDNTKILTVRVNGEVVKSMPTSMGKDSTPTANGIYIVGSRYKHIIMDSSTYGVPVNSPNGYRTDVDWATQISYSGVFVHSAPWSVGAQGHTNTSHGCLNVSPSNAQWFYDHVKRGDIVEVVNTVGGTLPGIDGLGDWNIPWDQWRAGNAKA
Test: biochemical
Assay type: biochemical
Parameters: made in house; host or cells: E. coli
Conditions: Table S4 HTS validation; 30 minutes inhibitor pre-incubation; n=6; read-out: pIC50 LdtMt2 (mean ± SD) (converted)
quantity name: IC50

Asked: Observed IC50 on LdtMt2 (Mycobacterium tuberculosis, UniProt I6Y9J2) for Cc1onc(-c2c(F)cccc2Cl)c1C(=O)N[C@@H]1C(=O)N2[C@@H]1SC(C)(C)[C@@H]2C(=O)O [Flucloxacillin, reference compound] , please.
Given back: 1.05 µM

Asked: Form: Entry = Cc1onc(-c2ccccc2)c1C(=O)N[C@@H]1C(=O)N2[C@@H]1SC(C)(C)[C@@H]2C(=O)O [Oxacillin, reference compound] | System = LdtMt2 (Mycobacterium tuberculosis, UniProt I6Y9J2) | IC50 = ____
Given back: 6.03 µM

Asked: What value of IC50 on LdtMt2 (Mycobacterium tuberculosis, UniProt I6Y9J2) does C[C@@H](O)[C@H]1C(=O)N2C(C(=O)[O-])=C(SC3Cn4cnc[n+]4C3)[C@H](C)[C@H]12 (some centres unmarked) [Biapenem, reference compound] have?
Given back: 2.88 µM

Asked: What value of IC50 on LdtMt2 (Mycobacterium tuberculosis, UniProt I6Y9J2) does O=[Se](O)c1ccccc1 [Benzeneseleninic acid, reference compound] have?
Given back: 3.55 µM

Asked: Record lookup: for LdtMt2 (Mycobacterium tuberculosis, UniProt I6Y9J2), what IC50 belongs to O=C(NNC(=O)[C@@H]1CC[C@@H]2CN1C(=O)N2OS(=O)(=O)O)[C@@H]1CCCNC1 [Zidebactam, reference compound] ?
Given back: 13.2 µM

Asked: What is its IC50 for LdtMt2 (Mycobacterium tuberculosis, UniProt I6Y9J2)? Entry: CC(=N)N1CC[C@H](SC2=C(C(=O)O)N3C(=O)[C@H]([C@@H](C)O)[C@H]3C2)C1 [Panipenem, reference compound]
Given back: 1.23 µM

Asked: Hi! What's the reported IC50 for CC1(C)S[C@@H]2[C@H](NC(=O)[C@H](C(=O)O)c3ccsc3)C(=O)N2[C@H]1C(=O)O [Ticarcillin, reference compound] on LdtMt2 (Mycobacterium tuberculosis, UniProt I6Y9J2)?
Given back: 44.7 µM

Asked: Request body: readout IC50, system LdtMt2 (Mycobacterium tuberculosis, UniProt I6Y9J2), query C[C@@H](O)[C@H]1C(=O)N2C(C(=O)O)=C(S[C@@H]3CN[C@H](C(=O)N(C)C)C3)[C@H](C)[C@H]12 [Meropenem, reference compound] . Return the value.
Given back: 1.35 µM
